Protocol Description: Human HepG2 cell viability assay in 384 well format
Type: toxicity, cell-based
Parameters: dose 125 nL, time 70.5 hour; concentration not given beside the values
Protocol Conditions: HepG2 cells, read-out: Inhibition
Measured Metric: cytotoxicity at 70.5 h

Sample records with cytotoxicity at 70.5 h:
[[record]]
compound = "Cc1nc(CN2CCC23CCN(Cc2ccoc2)CC3)cs1"
observed = "-6.82%"

[[record]]
compound = "CN(C)C1CCCN(Cc2cccc(Cn3cccn3)c2)CC1 (stereo unspecified)"
observed = "-1.58%"


Lab book: cytotoxicity at 70.5 h of COCCOc1ccnc(-c2noc([C@@H]3CCCN3CC(C)(C)C)n2)c1 noted as 2.83%

Lab book: cytotoxicity at 70.5 h of O=C(O)Cn1nc(-c2ccccc2F)ccc1=O noted as 2.69%

Lab book: cytotoxicity at 70.5 h of Cc1occc1C(=O)N1CCC2(CC1)NC(=O)CC2c1cnn(C)c1 (stereo unspecified) noted as -10.3%

Lab book: cytotoxicity at 70.5 h of CCS(=O)(=O)N1CCC(c2nnc(CN3CCCCCC3)n2C)CC1 noted as -3.73%

====

Listed next: entries and their corresponding cytotoxicity at 70.5 h.
Protocol Description: Human HepG2 cell viability assay in 384 well format
Format: toxicity, cell-based
Parameters: dose 125 nL, time 70.5 hour; concentration not given beside the values
Protocol Conditions: HepG2 cells, read-out: Inhibition
Write down the numeric answer in % and omit the unit.

Sample records with cytotoxicity at 70.5 h:
[[record]]
compound = "Cc1nn(C)c2nc(N(C)CCN(C)C3CCCC3)sc12"
measured_metric = "cytotoxicity at 70.5 h"
observed = 5.16

[[record]]
compound = "OCCOc1ccccc1CN1CCCC(O)(CO)C1 (stereo not given)"
measured_metric = "cytotoxicity at 70.5 h"
observed = 9.78

[[record]]
compound = "COCCn1cc(C(=O)N2CCCC2c2ccccc2C)ccc1=O (stereo not given)"
measured_metric = "cytotoxicity at 70.5 h"
observed = -7.56

[[record]]
compound = "N#CCCCS(=O)(=O)NC1(c2ccc(F)cc2)CC1"
measured_metric = "cytotoxicity at 70.5 h"
observed = -8.06

[[record]]
compound = "CCC(C)N(Cc1cnc(NCC(=O)O)nc1)Cc1ccsc1 (stereo not given)"
measured_metric = "cytotoxicity at 70.5 h"
observed = -7.35

[[record]]
compound = "Cc1cc(C2CCCN(CCCNS(C)(=O)=O)C2)n[nH]1 (stereo not given)"
measured_metric = "cytotoxicity at 70.5 h"
observed = -25.3

[[record]]
compound = "CCN(CC)c1ccc(C(=O)N2CCC(c3nc(C)no3)CC2)cn1"
measured_metric = "cytotoxicity at 70.5 h"
observed = -7.84

[[record]]
compound = "Cc1ccc(N(CCC#N)C(=O)CCc2cccnc2)cc1C"
measured_metric = "cytotoxicity at 70.5 h"
observed = -5.18


Lab book: cytotoxicity at 70.5 h of COCCCC1CCCN(C(=O)CCc2cc(O)no2)C1 (stereo not given) noted as -1.74

Lab book: cytotoxicity at 70.5 h of Cc1ccccc1CC1(C(=O)O)CCCN(c2ncccn2)C1 (stereo not given) noted as -7.63

====

Listed next: entries and their corresponding cytotoxicity at 70.5 h.
Protocol Description: Human HepG2 cell viability assay in 384 well format
Type: toxicity, cell-based
Parameters: dose 125 nL, time 70.5 hour; concentration not given beside the values
Protocol Conditions: HepG2 cells, read-out: Inhibition
Write down the numeric answer in % and omit the unit.

Sample records with cytotoxicity at 70.5 h:
[[record]]
compound = "Cc1nn(C)c2c(N3CCN(C(=O)c4ccccc4)CC3)ncnc12"
unit_descriptor = "%"
observed = -2.93

[[record]]
compound = "COC(=O)c1cccn1C1CCN(Cc2cccnc2)CC1"
unit_descriptor = "%"
observed = 4.46

[[record]]
compound = "NC(=O)CCN(C(=O)c1cccc2c1OCO2)c1ccccc1"
unit_descriptor = "%"
observed = -14

[[record]]
compound = "O=C1NC2(CCN(C(=O)N3CCOCC3)CC2)CC1c1cccnc1 (stereo not given)"
unit_descriptor = "%"
observed = 3.42

[[record]]
compound = "COc1cccc(N2CCN(C(=O)C(O)c3cccc(Cl)c3)CC2=O)c1 (stereo not given)"
unit_descriptor = "%"
observed = 6.54

[[record]]
compound = "c1csc(-c2noc(CN3CCCCC3Cn3cccn3)n2)c1 (stereo not given)"
unit_descriptor = "%"
observed = -1.63

[[record]]
compound = "Cc1ccc(CN2CCOCC2)cc1NCc1ccsc1"
unit_descriptor = "%"
observed = -13.9

[[record]]
compound = "CN1CC(C(=O)NCc2cccnc2OCc2ccccc2)CC1=O (stereo not given)"
unit_descriptor = "%"
observed = -4.14


Lab book: cytotoxicity at 70.5 h of Cc1n[nH]c2c1C(c1ccc(O)c(Cl)c1)SCC(=O)N2 (stereo not given) noted as 1.38

Lab book: cytotoxicity at 70.5 h of CCCC(=O)N1CCCC(C(=O)c2cnn(-c3ccc(F)cc3)c2N)C1 (stereo not given) noted as -4.03

Lab book: cytotoxicity at 70.5 h of Cc1ccc(CCNC(=O)Cn2nc(C)n(Cc3ccccc3)c2=O)s1 noted as 3.12

Lab book: cytotoxicity at 70.5 h of O=C(Cc1ccccc1)NCc1ccc(-c2ccccc2C(=O)O)cn1 noted as 1.3
